Measured RBC count of individual entries
# test protocol: Hematology assays in cynomolgus monkeys (Example 45)
# Type: in vivo
# test parameters: day −14; escalating dose regimen
# Method: Groups, each consisting of two male and three female monkeys, were injected subcutaneously with ISIS 416838, ISIS 416850, ISIS 416858, ISIS 416864, or ISIS 417002 in escalating doses. […] Body weights were measured weekly. […]
assay endpoint: RBC count

[[record]]
substance = "ISIS 416858: MOE gapmer, nucleobases 1275 to 1318 of SEQ ID NO: 1 (Table 8) (antisense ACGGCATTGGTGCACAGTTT; MOE gapmer, wing and gap sizes not given here)"
assay_endpoint = "RBC count"
reported = "5.6e+06 µL⁻¹"

[[record]]
substance = "ISIS 417002: MOE gapmer, nucleobases 1275 to 1318 of SEQ ID NO: 1 (Table 8) (antisense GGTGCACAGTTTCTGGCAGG; MOE gapmer, wing and gap sizes not given here)"
assay_endpoint = "RBC count"
reported = "5.6e+06 µL⁻¹"

[[record]]
substance = "ISIS 416850: MOE gapmer, nucleobases 1275 to 1318 of SEQ ID NO: 1 (Table 8) (antisense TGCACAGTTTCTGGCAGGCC; MOE gapmer, wing and gap sizes not given here)"
assay_endpoint = "RBC count"
reported = "5.3e+06 µL⁻¹"

[[record]]
substance = "ISIS 416838: MOE gapmer, nucleobases 1018 to 1042 of SEQ ID NO: 1 (Table 6) (antisense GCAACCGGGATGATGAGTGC; MOE gapmer, wing and gap sizes not given here)"
assay_endpoint = "RBC count"
reported = "5.6e+06 µL⁻¹"

[[record]]
substance = "ISIS 416864: MOE gapmer, nucleobases 1275 to 1318 of SEQ ID NO: 1 (Table 8) (antisense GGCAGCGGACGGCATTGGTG; MOE gapmer, wing and gap sizes not given here)"
assay_endpoint = "RBC count"
reported = "5.5e+06 µL⁻¹"


====

# test protocol: Hematology assays in cynomolgus monkeys (Example 46)
# Assay type: in vivo
# test parameters: Day-14
Strand notation (5' to 3'): a small letter for the sugar, then the base; units joined by * are phosphorothioate-linked, units joined directly phosphodiester-linked; [ ] holds rarer units or linkages, { } end groups; capitals alone tell only the bases. e = 2'-O-(2-methoxyethyl) (MOE); [5mC] = 5-methylcytosine; d = 2'-deoxy (DNA)
# reported HCT; entries follow
assay endpoint: HCT (%)

[[record]]
substance = "ISIS 416850: MOE gapmer, nucleobases 1275 to 1318 of SEQ ID NO: 1 (Table 8) (antisense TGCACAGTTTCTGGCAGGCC; MOE gapmer, wing and gap sizes not given here)"
reported = 41

[[record]]
substance = "ISIS 449711: 3-8-3, 4-8-4, 2-10-2, 3-10-3 or 4-10-4 MOE microwalk gapmer (Table 46) (antisense eA*e[5mC]*dA*dG*dT*dT*dT*d[5mC]*dT*dG*dG*d[5mC]*eA*eG)"
reported = 41

[[record]]
substance = "ISIS 449709: 3-8-3, 4-8-4, 2-10-2, 3-10-3 or 4-10-4 MOE microwalk gapmer (Table 46) (antisense eG*e[5mC]*eA*e[5mC]*dA*dG*dT*dT*dT*d[5mC]*dT*dG*dG*d[5mC]*eA*eG*eG*e[5mC])"
reported = 41

[[record]]
substance = "ISIS 416858: MOE gapmer, nucleobases 1275 to 1318 of SEQ ID NO: 1 (Table 8) (antisense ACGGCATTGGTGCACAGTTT; MOE gapmer, wing and gap sizes not given here)"
reported = 41

[[record]]
substance = "ISIS 445531: 5-8-5 or 6-8-6 MOE microwalk gapmer (Table 44) (antisense eG*eG*e[5mC]*eA*eT*dT*dG*dG*dT*dG*d[5mC]*dA*d[5mC]*eA*eG*eT*eT*eT)"
reported = 41

[[record]]
substance = "ISIS 445522: 5-8-5 or 6-8-6 MOE microwalk gapmer (Table 44) (antisense eG*e[5mC]*eA*e[5mC]*eA*dG*dT*dT*dT*d[5mC]*dT*dG*dG*e[5mC]*eA*eG*eG*e[5mC])"
reported = 42

[[record]]
substance = "ISIS 449710: 3-8-3, 4-8-4, 2-10-2, 3-10-3 or 4-10-4 MOE microwalk gapmer (Table 46) (antisense e[5mC]*eA*e[5mC]*dA*dG*dT*dT*dT*d[5mC]*dT*dG*dG*d[5mC]*eA*eG*eG)"
reported = 41

[[record]]
substance = "ISIS 449707: 3-8-3, 4-8-4, 2-10-2, 3-10-3 or 4-10-4 MOE microwalk gapmer (Table 46) (antisense e[5mC]*eA*e[5mC]*eA*dG*dT*dT*dT*d[5mC]*dT*dG*dG*e[5mC]*eA*eG*eG)"
reported = 40

[[record]]
substance = "ISIS 449708: 3-8-3, 4-8-4, 2-10-2, 3-10-3 or 4-10-4 MOE microwalk gapmer (Table 46) (antisense eA*e[5mC]*eA*dG*dT*dT*dT*d[5mC]*dT*dG*dG*e[5mC]*eA*eG)"
reported = 41


====

# test protocol: Tolerability in Sprague-Dawley rats: hematology assays (Example 44)
# Type: in vivo
# test parameters: 50 mg/kg s.c. twice per week for 6 weeks, blood
Strand notation (5' to 3'): a small letter for the sugar, then the base; units joined by * are phosphorothioate-linked, units joined directly phosphodiester-linked; [ ] holds rarer units or linkages, { } end groups; capitals alone tell only the bases. e = 2'-O-(2-methoxyethyl) (MOE); [5mC] = 5-methylcytosine; d = 2'-deoxy (DNA)
This listing pairs substances with measured hematocrit.
assay endpoint: hematocrit (%)

[[record]]
substance = "ISIS 449708: 3-8-3, 4-8-4, 2-10-2, 3-10-3 or 4-10-4 MOE microwalk gapmer (Table 46) (antisense eA*e[5mC]*eA*dG*dT*dT*dT*d[5mC]*dT*dG*dG*e[5mC]*eA*eG)"
assay_endpoint = "hematocrit"
reported = 40

[[record]]
substance = "ISIS 449709: 3-8-3, 4-8-4, 2-10-2, 3-10-3 or 4-10-4 MOE microwalk gapmer (Table 46) (antisense eG*e[5mC]*eA*e[5mC]*dA*dG*dT*dT*dT*d[5mC]*dT*dG*dG*d[5mC]*eA*eG*eG*e[5mC])"
assay_endpoint = "hematocrit"
reported = 41

[[record]]
substance = "ISIS 449711: 3-8-3, 4-8-4, 2-10-2, 3-10-3 or 4-10-4 MOE microwalk gapmer (Table 46) (antisense eA*e[5mC]*dA*dG*dT*dT*dT*d[5mC]*dT*dG*dG*d[5mC]*eA*eG)"
assay_endpoint = "hematocrit"
reported = 43

[[record]]
substance = "ISIS 449707: 3-8-3, 4-8-4, 2-10-2, 3-10-3 or 4-10-4 MOE microwalk gapmer (Table 46) (antisense e[5mC]*eA*e[5mC]*eA*dG*dT*dT*dT*d[5mC]*dT*dG*dG*e[5mC]*eA*eG*eG)"
assay_endpoint = "hematocrit"
reported = 40

[[record]]
substance = "ISIS 449710: 3-8-3, 4-8-4, 2-10-2, 3-10-3 or 4-10-4 MOE microwalk gapmer (Table 46) (antisense e[5mC]*eA*e[5mC]*dA*dG*dT*dT*dT*d[5mC]*dT*dG*dG*d[5mC]*eA*eG*eG)"
assay_endpoint = "hematocrit"
reported = 41


====

# Test system: human Factor 11 mRNA
# test protocol: Dose-dependent inhibition of human Factor 11 in HepG2 cells, electroporation 375-12,000 nM (Example 32)
# Type: cell-based
# test parameters: electroporation, 750 nM, approx. 16 hours, relative to untreated control cells
Strand notation (5' to 3'): a small letter for the sugar, then the base; units joined by * are phosphorothioate-linked, units joined directly phosphodiester-linked; [ ] holds rarer units or linkages, { } end groups; capitals alone tell only the bases. e = 2'-O-(2-methoxyethyl) (MOE); [5mC] = 5-methylcytosine; d = 2'-deoxy (DNA)
assay endpoint: Percent inhibition of Factor 11 mRNA at 750 nM (%)

[[record]]
substance = "449708 (antisense eA*e[5mC]*eA*dG*dT*dT*dT*d[5mC]*dT*dG*dG*e[5mC]*eA*eG) [compound 449708]"
reported = 0

[[record]]
substance = "445531 (antisense eG*eG*e[5mC]*eA*eT*dT*dG*dG*dT*dG*d[5mC]*dA*d[5mC]*eA*eG*eT*eT*eT) [compound 445531]"
reported = 64

[[record]]
substance = "416850 (antisense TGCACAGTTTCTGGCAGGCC; 5-10-5 gapmer, further chemistry not given here) [compound 416850]"
reported = 59

[[record]]
substance = "449710 (antisense e[5mC]*eA*e[5mC]*dA*dG*dT*dT*dT*d[5mC]*dT*dG*dG*d[5mC]*eA*eG*eG) [compound 449710]"
reported = 21

[[record]]
substance = "449711 (antisense eA*e[5mC]*dA*dG*dT*dT*dT*d[5mC]*dT*dG*dG*d[5mC]*eA*eG) [compound 449711]"
reported = 14

[[record]]
substance = "449709 (antisense eG*e[5mC]*eA*e[5mC]*dA*dG*dT*dT*dT*d[5mC]*dT*dG*dG*d[5mC]*eA*eG*eG*e[5mC]) [compound 449709]"
reported = 71

[[record]]
substance = "416858 (antisense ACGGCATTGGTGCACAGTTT; 5-10-5 gapmer, further chemistry not given here) [compound 416858]"
reported = 35

[[record]]
substance = "445522 (antisense eG*e[5mC]*eA*e[5mC]*eA*dG*dT*dT*dT*d[5mC]*dT*dG*dG*e[5mC]*eA*eG*eG*e[5mC]) [compound 445522]"
reported = 71

[[record]]
substance = "449707 (antisense e[5mC]*eA*e[5mC]*eA*dG*dT*dT*dT*d[5mC]*dT*dG*dG*e[5mC]*eA*eG*eG) [compound 449707]"
reported = 35

